target: human JAK2 (a.a. 828-1132) (Homo sapiens, UniProt O60674); construct: JAK2 (a.a. 828-1132); His tag (N); made in house; host or cells: insect cells (baculovirus); assay: In vitro JAK kinase assay (HTRF, phosphorylation of a biotinylated peptide), JAK2; format: biochemical; settings: Table B1
Sequence (O60674 828-1132): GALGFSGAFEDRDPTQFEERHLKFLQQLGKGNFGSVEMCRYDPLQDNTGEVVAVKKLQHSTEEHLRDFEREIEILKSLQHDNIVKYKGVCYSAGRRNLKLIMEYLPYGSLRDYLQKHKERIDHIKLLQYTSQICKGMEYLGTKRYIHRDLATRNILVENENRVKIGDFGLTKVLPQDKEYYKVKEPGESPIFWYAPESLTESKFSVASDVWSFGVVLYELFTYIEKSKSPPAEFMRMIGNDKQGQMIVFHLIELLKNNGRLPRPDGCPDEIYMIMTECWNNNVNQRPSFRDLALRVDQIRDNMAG
pIC50: −log10 of the molar value. Where a name gives a salt, the structure may show the parent alone.
measure-name: pIC50

{"compound": "O=C(Nc1ccc2cc1CCc1cccc(c1)Nc1ncc(Cl)c(n1)N2)c1ccccc1F [Example B38, trifluoroacetate]", "measure-name": "pIC50", "recorded-measurement": 9.59}

A. CCC(=O)Nc1ccc2cc1CCc1cccc(c1)Nc1ncc(Cl)c(n1)N2 [Example B54, trifluoroacetate]
B. CC(C)(C)OC(=O)N1CCN(Cc2ccc3cc2CCc2cccc(c2)Nc2ncc(Cl)c(n2)N3)CC1 [Example B221, bis(trifluoroacetate)]
INPUT: Param metric = pIC50; output whichever of A , B has the minimum value. Refer to your chosen entry by its label in the reply.
OUTPUT: B
